Biological target: SARS-CoV-2 spike protein, B1.351 (beta variant), borne on lentiviral pseudovirus (SARS-CoV-2, B1.351)
Assay: cell-based or functional assay
List of Pseudo Neut, B1.351 IC50 (pM) values.
readout kind: Pseudo Neut, B1.351 IC50 (pM)

binder	readout kind	endpoint unit	readout relation	reported measurement
antibody 3086 (antibody, V domains shown) VH: QVQLQESGPGLVKPSETLSLTCTVSGGSISGHYWSWIRQPPGKGLEWIGYIYYSGSTNYNPSLKSRVTISVDTSVNQFSLKLSSVTAADTAVYYCARQEARDAVGNYFFDSWGQGTLVTVSS VL: QSALTQPASVSGSPGQSITISCSGTSSDIGSYDLVSWYQQHPGKAPKLLIYDVTKRPSGVSHRFSGSKSGNTASLTISGLQGEDEADYYCCSYVHFSTWVFGGGTKLTVL	Pseudo Neut, B1.351 IC50 (pM)	pM	=	115
antibody 1815 (antibody, V domains shown) VH: QVQLQESGPGLVKPSETLSLTCSVSGGSINYYYWSWIRKSPGKGLEWIGFIYSSGTTNYNPSLKSRVSMSIGTSKRQFSLKLSSVTAADSAVYYCARHSRSCTNGVCQTYYYYALDVWGHGTTVTVSS VL: QSVLTQPPSVSGAPGQRVTISCTGSSSNIGAGYDVHWYQQLPGTAPKLLIYANTHRPSGVPDRFSASKSGTSASLAIAGLQAEDEGDYYCQSYDGSLSESAVFGGGTRLTVL	Pseudo Neut, B1.351 IC50 (pM)	pM	=	345
antibody 2706 (antibody, V domains shown) VH: QVQLVQSGAEVKKPGSSVKVSCKASGGTFSTYAISWVRQAPGQGLEWMGGIIPLFATANYAQNFQGRVTITADKSTSTAYMELSSLRSEDTAVYYCASVRLHLEELSLSHQGDYYYGLDVWGQGTTVTVSS VL: DIQMTQSPSSLSASVADRVTITCQASQDISHYLNWYQQKPGKAPQLLIYDASKLETGAPSRFSGSGSGTDFTFTISSLQPEDIATYYCQQYDHLPLTFGGGSKVEIK	Pseudo Neut, B1.351 IC50 (pM)	pM	>	18000

Reference source: patent US20230382979A1
